Molecular target: T1, human PD-1 (#PD1-H82E4, AcroBiosystems) (human, UniProt Q15116 25-167)
T1 construct: bought
T1 sequence (Q15116 25-167 limits assumed): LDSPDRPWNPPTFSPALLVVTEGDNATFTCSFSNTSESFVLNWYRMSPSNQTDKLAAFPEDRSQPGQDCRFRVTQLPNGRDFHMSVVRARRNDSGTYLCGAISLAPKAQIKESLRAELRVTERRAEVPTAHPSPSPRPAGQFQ
Assay: SPR, PD-1 on captured IgG1
Listing: koff of selected binders
State the answer as a number, implicitly in s⁻¹.

Answered cases to consult:
| BINDER | UNIT STRING | koff |
| --- | --- | --- |
| SSR010 (antibody, human IgG1, V domains shown, human IgG1) VH: EVQLLESGGGLVQPGGSLRLSCAASGFTFSINAMTWVRQAPGKGLEWVSTISGSGFSTYYADSLKGRFTISRDNSKNTLYLQMNSLRAEDTAVYYCAKEVYGDYWGQGTLVTVSS VL: RSVLTQPPSASGTPGQRVSISCSGASSNVGSQSVFWYQQLPGTAPKLLIYSNNQRPSGVPDRFSGSKSGTSASLAISGLRSEDEADYYCAAWDDSLSIWVFGGGTKLTVL | s⁻¹ | 0.000199 |
| NWL270 (antibody, human IgG1, V domains shown, human IgG1) VH: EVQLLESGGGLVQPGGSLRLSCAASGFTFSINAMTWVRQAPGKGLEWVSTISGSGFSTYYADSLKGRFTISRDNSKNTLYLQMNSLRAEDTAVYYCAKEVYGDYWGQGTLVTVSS VL: RSVLTQPPSASGTPGQRVSISCSGASSNIGSQSVFWYQQLPGTAPKLLIYSNNQRPSGVPDRFSGSKSGTSASLAISGLRSEDEADYYCAAWDDSLSNWVFGGGTKLTVL | s⁻¹ | 9.82e-05 |
| KOW427 (antibody, human IgG1, V domains shown, human IgG1) VH: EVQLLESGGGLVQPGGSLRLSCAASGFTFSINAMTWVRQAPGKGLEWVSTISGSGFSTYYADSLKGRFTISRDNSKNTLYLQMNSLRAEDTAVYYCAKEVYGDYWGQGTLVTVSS VL: RSVLTQPPSASGTPGQRVSISCSGASSNIGSQSVFWYQQLPGTAPKLGIYSNNQRPSGVPDRFSGSKSGTSASLAISGLRSEDEADYYCAAWDDSLSIWVFGGGTKLTVL | s⁻¹ | 7.97e-05 |

Attention now shifts to the item below.
q: # return recorded koff for input FHX509 (antibody, human IgG1, V domains shown, human IgG1) VH: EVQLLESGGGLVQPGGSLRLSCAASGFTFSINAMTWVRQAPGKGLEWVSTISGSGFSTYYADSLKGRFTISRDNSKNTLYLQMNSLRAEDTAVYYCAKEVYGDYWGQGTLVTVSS VL: RSVLTQPPSASGTPGQRVSISCSGASSNIGSQSVFWYQQLPGTAPKLLIYSNNQRPSGVPDRFSGSKSGTSASLAISGLRSEDEADYYCAAWDDSLSAWVFGGGTKLTVL
a: 8.38e-05

Reference for the values: patent EP4671273A1
